Ref: the NIST ThermoML archive (doi:10.1021/je800883b)

Settings: 313.15 K; 101 kPa; Liquid; Pycnometric method
Observable: mass density (kg/m3)

[
  {
    "Smiles Record": "C1CCCCC1",
    "Observed": 759.2
  },
  {
    "Smiles Record": "CCC(C)=O",
    "Observed": 784
  },
  {
    "Smiles Record": "c1ccccc1",
    "Observed": 857.4
  },
  {
    "Smiles Record": "CCCCCC",
    "Observed": 641.7
  }
]

----------
Recorded mass density by entry
Settings: 323.15 K; 101 kPa; Liquid; Pycnometric method
Observable: mass density (kg/m3)

[
  {
    "Smiles Record": "CCCCCC",
    "Observable": "mass density",
    "Unit Spec": "kg/m3",
    "Observed": 630.9
  },
  {
    "Smiles Record": "CCC(C)=O",
    "Observable": "mass density",
    "Unit Spec": "kg/m3",
    "Observed": 773.3
  },
  {
    "Smiles Record": "C1CCCCC1",
    "Observable": "mass density",
    "Unit Spec": "kg/m3",
    "Observed": 748.7
  },
  {
    "Smiles Record": "c1ccccc1",
    "Observable": "mass density",
    "Unit Spec": "kg/m3",
    "Observed": 846.6
  }
]

----------
Conditions: 303.15 K; 101 kPa; Liquid; Pycnometric method
Listed below: mass density values for each entry.
Observable: mass density (kg/m3)

[
  {
    "Smiles Record": "C1CCCCC1",
    "Observed": 768.9
  },
  {
    "Smiles Record": "c1ccccc1",
    "Observed": 868.1
  },
  {
    "Smiles Record": "CCCCCC",
    "Observed": 650.9
  },
  {
    "Smiles Record": "CCC(C)=O",
    "Observed": 794.6
  }
]
